Assay: A CellTox Green Cytotoxicity Assay to monitor cytotoxicity in HepG2 cells - 32 hour (AID 1224883); further: nearly all actives have a fitted effect of over 50% in size
Conditions: CellTox Green fluorescence; series mostly up to 76.8 µM
Records with an inconclusive call do not appear. Activity calls are given as the source filed them. The call rests on the fitted dose curve; in most records, active means well fitted activation curve with a large enough effect in the repeat runs; inconclusive means weak or mixed curves; inactive means flat fitted curve, though single readings scatter.
In this exercise, the only acceptable responses are y for active, n for inactive

Example results:
INSERT INTO results (compound, qualitative_label) VALUES
  ('CCCCCCCCCCCC(=O)Cl', 'n'),
  ('CCC1(C)C(=O)N(Cl)C(=O)N1Cl (configuration not stated)', 'n');

Which outcome did this test record for the compound "Nc1cc([N+](=O)[O-])cc(Cl)c1O" ?
n

Which outcome did this test record for the compound "O=C1C=CC(=O)N1c1cccc(N2C(=O)C=CC2=O)c1" ?
y

Which outcome did this test record for the compound "CCCCCCCCSCc1cc(C)c(O)c(CSCCCCCCCC)c1" ?
n

Which outcome did this test record for the compound "O=C(NCc1ncc(C(F)(F)F)cc1Cl)c1c(Cl)cccc1Cl" ?
y

Which outcome did this test record for the compound "CCCCCCCCc1ccc(Nc2ccc(CCCCCCCC)cc2)cc1" ?
n

====

Experiment: qHTS assay to identify small molecule agonists of the AP-1 signaling pathway - cell viability counter screen (AID 1159525); further: nearly all actives have a fitted effect of over 55% in size
Conditions: ME-180 (cervical carcinoma) AP-1-bla cells viability, ATP luminescence, 5 h; series mostly up to 76.8 µM
Records with an inconclusive call do not appear. Calls of active or inactive are those of the source. Calls follow the shape of the full dose curve.
In this exercise, the only acceptable responses are Yes (active), No (inactive)

INSERT INTO measurements (compound, qualitative_label) VALUES
  ('O=S(=O)(c1ccc(OCc2ccccc2)cc1)c1ccccc1O', 'No');

Which outcome did this test record for the compound "c1ccc(C[P+](c2ccccc2)(c2ccccc2)c2ccccc2)cc1" ?
No

Which outcome did this test record for the compound "CC1=CC[C@@H](C(C)(C)O)CC1" ?
No

Which outcome did this test record for the compound "Cn1c(=O)[nH]c2ncn(C)c2c1=O" ?
No

====

Test: qHTS assay to identify small molecule antagonists of the estrogen related receptor signaling pathway with the pleiotropic PPARgamma coactivator (PGC) from Tox21 10K library - cell viability counter screen (AID 1224840); further: on the % scale 0 is the no-effect control and ±100 the full control effect; nearly all actives have a fitted effect of over 40% in size
Settings: PGC/ERR reporter cells viability, CellTiter-Fluor, 17.5 h; series mostly up to 92.4 µM
Experimental: National Center for Advancing Translational Sciences [NCATS] NIH Chemical Genomics Center [NCGC] U.S. Environmental Protection Agency [EPA] National Institutes of Environmental Health Sciences [NIEHS] National Toxicology Program [NTP] […] The PGC/ERR cells were dispensed at 2,000 cells/5 ul/well in 1536-well white plates using a Multidrop dispenser. […] After 30-minute incubation at 37 C/5% CO2, the fluorescence intensity in the plates was measured using a ViewLux plate reader.
Results filed as inconclusive are left out. The source made the active and inactive calls. Calls come from the whole dose curve; as a rule, active = well fitted cell-killing curve with a large enough effect in the repeat runs (not every such curve was filed as active); inconclusive = weak or mixed curves, or effect the other way; inactive = no such curve, though single readings can be large or run the other way.
Examples of compounds with documented viability change, negative = cytotoxic follow.

Worked set:
INSERT INTO measurements (smiles_input, test_value) VALUES
  ('O=C(O)CN(CCCN(CC(=O)O)CC(=O)O)CC(=O)O', '-3.45% [at 19 µM] (inactive)'),
  ('CCCCNc1ccc(NCCCC)c2c1C(=O)c1ccccc1C2=O', '-1.23% [at 19 µM] (inactive)'),
  ('COc1cc(C(C)C)ccc1C', '-28.8% [at 19 µM] (inactive)');

Would you kindly look at the next entry?
Field request: viability change, negative = cytotoxic | item: "COc1cc2ncnc(Nc3cccc(Cl)c3)c2cc1OC"
-14.4% [at 19 µM] (inactive)

Origin of values: PubChem BioAssay (Tox21)
